molecular target: Tyrosyl-tRNA synthetase, putative (Trypanosoma cruzi (strain CL Brener)); test: Trypanosoma cruzi tyrosyl tRNA synthetase (TcYRS) SOP; type: functional; design: scale not given: direction of the effect not stated beside the values; details: 30 µM

- Compound: "O=C(c1ccc2c(c1)OCO2)N1CCCSCC1CN1CCCC1 (stereo not drawn)"
  Percent Effect [%]: 11.5
- Compound: "Cc1nnc2n1CCN(C(C(=O)NC1CC1)c1ccccc1)C2 (stereo not drawn)"
  Percent Effect [%]: 13.2
- Compound: "Cc1noc(C)c1C(=O)NCc1ccc(N2CCOC(C)C2)nc1 (stereo not drawn)"
  Percent Effect [%]: 15.4
- Compound: "Cc1cc(NCc2cc3n(n2)CCCN(S(C)(=O)=O)C3)ncn1"
  Percent Effect [%]: 12.2
- Compound: "CC(O)CN1CCN(C(=O)CN(C)c2ccc(Cl)cn2)CC1 (stereo not drawn)"
  Percent Effect [%]: 7.32
- Compound: "CN(C)C(=O)COC[C@]12COC[C@H]1CN(Cc1ccoc1)C2"
  Percent Effect [%]: 1.24
- Compound: "O=C(O)C(c1ccc2c(c1)OCO2)N1CCC(C(=O)N2CCCC2)CC1 (stereo not drawn)"
  Percent Effect [%]: 3.7
- Compound: "Cn1cc(Cl)cc1C(=O)N1CCCN(Cc2cccs2)CC1"
  Percent Effect [%]: 0
- Compound: "Cn1ccnc1CNC(=O)N1CCCC(Cc2nccn2C)C1 (stereo not drawn)"
  Percent Effect [%]: 1.22
- Compound: "O=C(NCCNc1cnccn1)N1CCN(Cc2cccnc2)CC1"
  Percent Effect [%]: 20.2
- Compound: "CCOCCCNC(=O)c1nn(CC)cc1Cl"
  Percent Effect [%]: 12.8
- Compound: "Cn1ccnc1CN1CCC2(CC1)CC(NC(=O)c1ccccn1)CO2 (stereo not drawn)"
  Percent Effect [%]: 16.7
- Compound: "Cc1nc(C)n(CC2CCCN(CCC(=O)N3CCCCC3)C2)n1 (stereo not drawn)"
  Percent Effect [%]: 0
- Compound: "c1ccc(CN2CCOCC3(CCN(C4CCOCC4)C3)C2)cc1 (stereo not drawn)"
  Percent Effect [%]: 10.3
- Compound: "CCNC(=O)c1ccc(CNCc2c(C)nn(C)c2N(C)C)cc1"
  Percent Effect [%]: 12.8
- Compound: "CN(C)Cc1cnc2n1CCN(Cc1ccsc1)CC2"
  Percent Effect [%]: 11.1
- Compound: "Cc1cc(C)n(CC2CCCN2CCCS(=O)(=O)N(C)C)n1 (stereo not drawn)"
  Percent Effect [%]: 19.5
- Compound: "CCN(CC1CCCO1)C(=O)Nc1cc(C(=O)OC)ccc1F (stereo not drawn)"
  Percent Effect [%]: 8.86

* * *

target: Sialic acid-binding Ig-like lectin 9 (Homo sapiens); assay: Hs-Siglec9 ALPHAscreen SOP 20170721; set-up: scale not given: direction of the effect not stated beside the values; conditions: 10 µM
Reported Percent Effect values for the following compounds.
Observed property: Percent Effect (%)

- Compound: "CN(C)C(=O)N[C@@H]1CN(Cc2ccc3c(c2)OCO3)[C@@H]2CCCO[C@@H]21"
  Unit spec: "%"
  Obs value: 8.52
- Compound: "O=C(C1CCOCC1)N1C[C@@H]2[C@@H](C1)OCC(=O)N2Cc1ccncc1"
  Unit spec: "%"
  Obs value: 7.63
- Compound: "CCn1ccnc1CN1CCN(CCOc2cccc(C#N)c2)CC1"
  Unit spec: "%"
  Obs value: -4.93
- Compound: "COCCN1CCC(CN(CC2CCCO2)C(=O)CCNC(C)=O)CC1 (stereo not drawn)"
  Unit spec: "%"
  Obs value: -5.53
- Compound: "c1cnc2c(c1)cc([C@H]1CCCO1)n2CCN1CCOCC1"
  Unit spec: "%"
  Obs value: 5.59
- Compound: "COCCNC(=O)[C@H]1CN(Cc2nccs2)C[C@H]2OCC[C@@H]12"
  Unit spec: "%"
  Obs value: 11.4
- Compound: "Cc1nc(C2CCCCN2C(=O)c2ccccc2)ncc1C(=O)N(C)C (stereo not drawn)"
  Unit spec: "%"
  Obs value: 0.633
- Compound: "CCc1nc(CNCC2CCCN2c2cc(NC)ncn2)cs1 (stereo not drawn)"
  Unit spec: "%"
  Obs value: 1.02
- Compound: "CC(O)CN1CCC(CNCc2ccccc2OC(F)(F)F)CC1 (stereo not drawn)"
  Unit spec: "%"
  Obs value: -7.91
- Compound: "COc1ncccc1C(=O)N1CCn2c(COCC3CC3)cnc2C1C (stereo not drawn)"
  Unit spec: "%"
  Obs value: -3.01
- Compound: "Cc1nccn1C1CCCN(C(=O)c2ccc3c(c2)COC3)C1 (stereo not drawn)"
  Unit spec: "%"
  Obs value: 7.4
- Compound: "Cc1nc(C)n(C2CCCN(C(=O)CCCn3ccnc3)C2)n1 (stereo not drawn)"
  Unit spec: "%"
  Obs value: 0.244
- Compound: "CCOc1ccc(CC(CNC(=O)c2ccoc2)C(N)=O)cc1 (stereo not drawn)"
  Unit spec: "%"
  Obs value: -18.6
- Compound: "CCc1nccn1C1CCCN(C(=O)c2ccc3nncn3c2)C1 (stereo not drawn)"
  Unit spec: "%"
  Obs value: 9.34
- Compound: "COC(=O)CCC(=O)N1CCc2[nH]nc(-c3ccc(F)c(F)c3)c2C1"
  Unit spec: "%"
  Obs value: -7.28
- Compound: "CCS(=O)(=O)CCn1ccc(NC(=O)CCc2cccc(C)c2)n1"
  Unit spec: "%"
  Obs value: -5.21
- Compound: "CC(C)N1CCC(Cc2cc(-c3ccccc3C(=O)O)ncn2)CC1"
  Unit spec: "%"
  Obs value: -7.29
- Compound: "COCCNC(=O)c1cc2c(s1)CCN2C(=O)c1ccccc1"
  Unit spec: "%"
  Obs value: 4.96
- Compound: "COCCOc1cccc(C(=O)N2CCCC(n3ccnc3C)C2)c1 (stereo not drawn)"
  Unit spec: "%"
  Obs value: 8.18
- Compound: "Cc1cc(CN2Cc3ccccc3CC2c2nnc(C)o2)on1 (stereo not drawn)"
  Unit spec: "%"
  Obs value: 3.48
- Compound: "Cc1nc(CN(C)C2CCN(CC(=O)N3CCOCC3)C2)no1 (stereo not drawn)"
  Unit spec: "%"
  Obs value: -3.82
- Compound: "CN(C)C1CCN(C(=O)NCc2ccccc2Cn2cncn2)CC1"
  Unit spec: "%"
  Obs value: 10.9
- Compound: "COc1cccc(CN(C)Cc2cccc(C#N)c2)c1OC"
  Unit spec: "%"
  Obs value: 5.68
- Compound: "COC(=O)c1ccc(S(=O)(=O)NCc2cccnc2N(C)C)cc1"
  Unit spec: "%"
  Obs value: -11
- Compound: "Cc1cc(C)n(C2CN(CC(=O)N(C)Cc3ccc(C)o3)C2)n1"
  Unit spec: "%"
  Obs value: 6.03
- Compound: "CN(C)C(=O)N1Cc2nnn(C)c2C(COCC2CC2)C1 (stereo not drawn)"
  Unit spec: "%"
  Obs value: 0.0741
- Compound: "O=C(CCc1cccnc1)N1CCCC(n2cncn2)C1 (stereo not drawn)"
  Unit spec: "%"
  Obs value: 4.06
- Compound: "CCC(=O)N1CCC2(CC1)c1nc[nH]c1CCN2S(C)(=O)=O"
  Unit spec: "%"
  Obs value: 9.02
- Compound: "NC(=O)c1cccc(CC2CCN(C(=O)CO)C2)c1 (stereo not drawn)"
  Unit spec: "%"
  Obs value: 10.6
- Compound: "CN(Cc1ccsc1)C(=O)Nc1ccc(S(C)(=O)=O)nc1"
  Unit spec: "%"
  Obs value: -5.34
- Compound: "Cc1ccc(-c2cn[nH]c2C2CCCN(c3nccc(N)n3)C2)cc1 (stereo not drawn)"
  Unit spec: "%"
  Obs value: 15.4
- Compound: "COCC(=O)N1CCC(c2nccn2CC2CC2)CC1"
  Unit spec: "%"
  Obs value: 8.36
- Compound: "Cc1cccnc1NC(=O)C(C)Cn1nc(C(F)(F)F)cc1C (stereo not drawn)"
  Unit spec: "%"
  Obs value: 4.76
- Compound: "COc1ccc(COCC(O)CNC(=O)c2cnc(C)cn2)cc1 (stereo not drawn)"
  Unit spec: "%"
  Obs value: 0.611
- Compound: "NC(=O)CN1CCC(C(=O)N2CCCC(OCc3cccnc3)C2)CC1 (stereo not drawn)"
  Unit spec: "%"
  Obs value: 1.65
- Compound: "Cc1csc(Nc2cc(C3CCCCN3C)nc(C)n2)n1 (stereo not drawn)"
  Unit spec: "%"
  Obs value: -13.6
- Compound: "CCS(=O)(=O)NC(C(=O)NC)c1ccc(F)c(F)c1 (stereo not drawn)"
  Unit spec: "%"
  Obs value: 0.659
- Compound: "O=C(Cc1cccs1)N1CC[C@H]2[C@@H]1CCC(=O)N2c1cccnc1"
  Unit spec: "%"
  Obs value: -3.71
- Compound: "Cc1nc(C)n(CC2CN(CC(=O)Nc3cccnc3)CCO2)n1 (stereo not drawn)"
  Unit spec: "%"
  Obs value: -1.08
- Compound: "CS(=O)(=O)N1CCc2nc(NC(=O)Nc3c(F)cccc3F)sc2C1"
  Unit spec: "%"
  Obs value: -0.122
- Compound: "Cc1ccc2c(n1)N(C)CCN(C(=O)C1CC1)C2"
  Unit spec: "%"
  Obs value: 2.31
- Compound: "Cc1ccc(-c2cc(CN3CCCC(Cn4cncn4)C3)on2)cc1 (stereo not drawn)"
  Unit spec: "%"
  Obs value: -2.07
- Compound: "CC(NC(=O)NCCCN1CCCCCC1)c1nncn1C (stereo not drawn)"
  Unit spec: "%"
  Obs value: 18.7
